Value source: ChEMBL document CHEMBL1130586

biological target: Muscarinic acetylcholine receptor M3 (Cavia porcellus, UniProt Q8VH26); experiment: Compound was tested for its agonist activity against M3-acetylcholine receptor of guinea pig ileum.; format: functional, tissue-based; conditions: read-out: pA2 (converted)
Sequence (Q8VH26 whole entry): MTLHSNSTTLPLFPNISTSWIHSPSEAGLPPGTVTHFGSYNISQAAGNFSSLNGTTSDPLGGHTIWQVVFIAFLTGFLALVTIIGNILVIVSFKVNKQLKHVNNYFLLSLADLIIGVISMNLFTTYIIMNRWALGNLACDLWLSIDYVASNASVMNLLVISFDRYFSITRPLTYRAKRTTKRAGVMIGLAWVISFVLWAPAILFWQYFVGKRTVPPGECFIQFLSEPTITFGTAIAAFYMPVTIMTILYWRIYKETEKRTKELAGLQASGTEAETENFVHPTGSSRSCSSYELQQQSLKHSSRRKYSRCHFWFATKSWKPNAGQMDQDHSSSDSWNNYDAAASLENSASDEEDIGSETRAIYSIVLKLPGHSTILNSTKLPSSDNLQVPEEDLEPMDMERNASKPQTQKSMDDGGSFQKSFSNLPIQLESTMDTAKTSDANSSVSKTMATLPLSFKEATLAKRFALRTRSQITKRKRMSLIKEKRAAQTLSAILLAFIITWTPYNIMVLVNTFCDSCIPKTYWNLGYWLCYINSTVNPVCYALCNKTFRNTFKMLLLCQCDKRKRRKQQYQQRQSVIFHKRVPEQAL
Returns one of Criterion met or Criterion not met; Criterion met when Kb is >= 70 µM.

>  <chemical-structure>
CNCCc1c[nH]c(-c2cccc(C(F)(F)F)c2)n1

>  <measured-target>
Muscarinic acetylcholine receptor M3 (Cavia porcellus, UniProt Q8VH26)

>  <cat>
Criterion met

$$$$
>  <chemical-structure>
NCCc1c[nH]c(-c2cccc(Br)c2)n1

>  <measured-target>
Muscarinic acetylcholine receptor M3 (Cavia porcellus, UniProt Q8VH26)

>  <cat>
Criterion met

$$$$
>  <chemical-structure>
CN(C)CCc1c[nH]c(-c2cccc(Br)c2)n1

>  <measured-target>
Muscarinic acetylcholine receptor M3 (Cavia porcellus, UniProt Q8VH26)

>  <cat>
Criterion not met

$$$$
>  <chemical-structure>
CNCCc1c[nH]c(-c2cccc(Br)c2)n1

>  <measured-target>
Muscarinic acetylcholine receptor M3 (Cavia porcellus, UniProt Q8VH26)

>  <cat>
Criterion met

$$$$
>  <chemical-structure>
CN(C)CCc1c[nH]c(-c2cccc(C(F)(F)F)c2)n1

>  <measured-target>
Muscarinic acetylcholine receptor M3 (Cavia porcellus, UniProt Q8VH26)

>  <cat>
Criterion not met

$$$$
>  <chemical-structure>
NCCc1cnc(-c2cccc(C(F)(F)F)c2)[nH]1

>  <measured-target>
Muscarinic acetylcholine receptor M3 (Cavia porcellus, UniProt Q8VH26)

>  <cat>
Criterion met

$$$$

###

# Emax annotations
target: Histamine H1 receptor (Cavia porcellus) (UniProt P31389); experiment: Partial agonist activity against Histamine H1 receptor in guinea pig ileum.; assay type: functional, tissue-based
reported-metric: Emax (%)

>  <chemical-structure>
FC(F)(F)c1cccc(-c2nc(CCNC3CC3)c[nH]2)c1

>  <result-unit>
%

>  <result-value>
36

$$$$
>  <chemical-structure>
CCNCCc1c[nH]c(-c2cccc(C(F)(F)F)c2)n1

>  <result-unit>
%

>  <result-value>
63

$$$$
>  <chemical-structure>
CNCCc1c[nH]c(-c2cccc(C(F)(F)F)c2)n1

>  <result-unit>
%

>  <result-value>
97

$$$$
>  <chemical-structure>
NCCc1c[nH]c(-c2cccc(C(F)(F)F)c2)n1

>  <result-unit>
%

>  <result-value>
100

$$$$
>  <chemical-structure>
CN(C)CCc1c[nH]c(-c2cccc(Br)c2)n1

>  <result-unit>
%

>  <result-value>
81

$$$$
>  <chemical-structure>
CNCCc1c[nH]c(-c2cccc(Br)c2)n1

>  <result-unit>
%

>  <result-value>
95

$$$$
>  <chemical-structure>
NCCc1c[nH]c(-c2cccc(Br)c2)n1

>  <result-unit>
%

>  <result-value>
100

$$$$
>  <chemical-structure>
NCCc1c[nH]cn1

>  <result-unit>
%

>  <result-value>
100

$$$$
>  <chemical-structure>
CN(C)CCc1c[nH]c(-c2cccc(C(F)(F)F)c2)n1

>  <result-unit>
%

>  <result-value>
88

$$$$

###

biological target: Histamine H1 receptor (Cavia porcellus) (UniProt P31389); test: Partial agonist activity against Histamine H1 receptor in guinea pig aorta; type: functional, tissue-based
// classify: if (Emax < 60%) Yes else No

>  <chemical-structure>
NCCc1c[nH]c(-c2cccc(Br)c2)n1

>  <cat>
No

$$$$
>  <chemical-structure>
CN(C)CCc1c[nH]c(-c2cccc(C(F)(F)F)c2)n1

>  <cat>
Yes

$$$$
>  <chemical-structure>
NCCc1c[nH]cn1

>  <cat>
No

$$$$
>  <chemical-structure>
CN(C)CCc1c[nH]c(-c2cccc(Br)c2)n1

>  <cat>
Yes

$$$$
>  <chemical-structure>
NCCc1c[nH]c(-c2cccc(C(F)(F)F)c2)n1

>  <cat>
No

$$$$
>  <chemical-structure>
CNCCc1c[nH]c(-c2cccc(Br)c2)n1

>  <cat>
No

$$$$

###

target: Histamine H2 receptor (Cavia porcellus); experiment: Compound was tested for agonist activity against histamine H2 receptor of guinea pig atrium; assay type: functional, tissue-based; details: Cardiac atrium

>  <chemical-structure>
CN(C)CCc1c[nH]c(-c2cccc(C(F)(F)F)c2)n1

>  <measured-target>
Histamine H2 receptor (Cavia porcellus)

>  <pD2>
4.56

$$$$
>  <chemical-structure>
FC(F)(F)c1cccc(-c2nc(CCNC3CC3)c[nH]2)c1

>  <measured-target>
Histamine H2 receptor (Cavia porcellus)

>  <pD2>
4.36

$$$$
>  <chemical-structure>
NCCc1c[nH]c(-c2cccc(C(F)(F)F)c2)n1

>  <measured-target>
Histamine H2 receptor (Cavia porcellus)

>  <pD2>
3.48

$$$$
>  <chemical-structure>
CN(C)CCc1c[nH]c(-c2cccc(Br)c2)n1

>  <measured-target>
Histamine H2 receptor (Cavia porcellus)

>  <pD2>
4.74

$$$$
>  <chemical-structure>
CCNCCc1c[nH]c(-c2cccc(C(F)(F)F)c2)n1

>  <measured-target>
Histamine H2 receptor (Cavia porcellus)

>  <pD2>
4.55

$$$$
>  <chemical-structure>
CNCCc1c[nH]c(-c2cccc(Br)c2)n1

>  <measured-target>
Histamine H2 receptor (Cavia porcellus)

>  <pD2>
3.86

$$$$
>  <chemical-structure>
CNCCc1c[nH]c(-c2cccc(C(F)(F)F)c2)n1

>  <measured-target>
Histamine H2 receptor (Cavia porcellus)

>  <pD2>
4.04

$$$$

###

molecular target: Histamine H1 receptor (Cavia porcellus) (UniProt P31389); assay: Compound was tested for its […] in the presence of mepyramine (1-1000 nM) against Histamine H1 receptor of guinea pig aorta.; type: functional
reported-metric: Emax (%)

>  <chemical-structure>
CNCCc1c[nH]c(-c2cccc(C(F)(F)F)c2)n1

>  <reported-metric>
Emax

>  <result-unit>
%

>  <result-value>
66

$$$$
>  <chemical-structure>
NCCc1c[nH]cn1

>  <reported-metric>
Emax

>  <result-unit>
%

>  <result-value>
100

$$$$
>  <chemical-structure>
CNCCc1c[nH]c(-c2cccc(Br)c2)n1

>  <reported-metric>
Emax

>  <result-unit>
%

>  <result-value>
75

$$$$
>  <chemical-structure>
CN(C)CCc1c[nH]c(-c2cccc(C(F)(F)F)c2)n1

>  <reported-metric>
Emax

>  <result-unit>
%

>  <result-value>
64

$$$$
>  <chemical-structure>
CN(C)CCc1c[nH]c(-c2cccc(Br)c2)n1

>  <reported-metric>
Emax

>  <result-unit>
%

>  <result-value>
49

$$$$

###

molecular target: Histamine H1 receptor (Cavia porcellus) (UniProt P31389); assay: Relative potency against Histamine H1 receptor in guinea pig ileum.; type: functional, tissue-based
reported-metric: Relative potency (%)

>  <chemical-structure>
FC(F)(F)c1cccc(-c2nc(CCNC3CC3)c[nH]2)c1

>  <reported-metric>
Relative potency

>  <result-value>
28

$$$$
>  <chemical-structure>
CN(C)CCc1c[nH]c(-c2cccc(Br)c2)n1

>  <reported-metric>
Relative potency

>  <result-value>
87

$$$$
>  <chemical-structure>
CN(C)CCc1c[nH]c(-c2cccc(C(F)(F)F)c2)n1

>  <reported-metric>
Relative potency

>  <result-value>
95

$$$$
>  <chemical-structure>
NCCc1c[nH]c(-c2cccc(C(F)(F)F)c2)n1

>  <reported-metric>
Relative potency

>  <result-value>
128

$$$$
>  <chemical-structure>
CCNCCc1c[nH]c(-c2cccc(C(F)(F)F)c2)n1

>  <reported-metric>
Relative potency

>  <result-value>
30

$$$$
>  <chemical-structure>
CNCCc1c[nH]c(-c2cccc(C(F)(F)F)c2)n1

>  <reported-metric>
Relative potency

>  <result-value>
174

$$$$
>  <chemical-structure>
CNCCc1c[nH]c(-c2cccc(Br)c2)n1

>  <reported-metric>
Relative potency

>  <result-value>
109

$$$$

###

# Kb annotations
target: Histamine H1 receptor (Cavia porcellus, UniProt P31389); test: Contractile effects antagonized by mepyramine (0.3-100 nM) against Histamine H1 receptor in guinea pig ileum; format: functional, tissue-based; conditions: read-out: pA2 (converted)
Sequence (P31389 whole entry): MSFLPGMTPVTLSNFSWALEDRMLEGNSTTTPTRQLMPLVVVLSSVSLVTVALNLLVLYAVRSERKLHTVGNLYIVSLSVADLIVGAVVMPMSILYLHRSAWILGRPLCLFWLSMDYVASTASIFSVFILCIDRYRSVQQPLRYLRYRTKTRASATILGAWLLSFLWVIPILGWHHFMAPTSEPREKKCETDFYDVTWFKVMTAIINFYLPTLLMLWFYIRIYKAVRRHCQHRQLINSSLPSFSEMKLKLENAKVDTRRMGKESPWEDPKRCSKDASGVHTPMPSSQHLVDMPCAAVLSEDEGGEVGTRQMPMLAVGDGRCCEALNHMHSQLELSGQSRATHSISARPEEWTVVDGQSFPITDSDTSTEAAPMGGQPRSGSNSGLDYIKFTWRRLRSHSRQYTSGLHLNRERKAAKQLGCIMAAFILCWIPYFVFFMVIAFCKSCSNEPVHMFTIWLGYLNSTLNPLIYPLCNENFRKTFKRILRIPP

>  <chemical-structure>
FC(F)(F)c1cccc(-c2nc(CCNC3CC3)c[nH]2)c1

>  <Kb>
0.741 nM

$$$$
>  <chemical-structure>
CN(C)CCc1c[nH]c(-c2cccc(Br)c2)n1

>  <Kb>
0.708 nM

$$$$
>  <chemical-structure>
NCCc1c[nH]c(-c2cccc(Br)c2)n1

>  <Kb>
0.741 nM

$$$$
>  <chemical-structure>
CCNCCc1c[nH]c(-c2cccc(C(F)(F)F)c2)n1

>  <Kb>
1.05 nM

$$$$
>  <chemical-structure>
NCCc1cnc(-c2cccc(C(F)(F)F)c2)[nH]1

>  <Kb>
0.891 nM

$$$$
>  <chemical-structure>
CNCCc1c[nH]c(-c2cccc(C(F)(F)F)c2)n1

>  <Kb>
0.912 nM

$$$$
